# Target or test system: T1, Proleukin® (aldesleukin) (human, UniProt P60568 21-153, limits assumed)
# T1 construct: Variant of human wt IL-2 with C145S (C125S on mature IL-2); also called IL-2 (Proleukin®); human IL-2 (Proleukin)
# T1 sequence (P60568 other isoform, or with tags, fused parts or gaps limits assumed): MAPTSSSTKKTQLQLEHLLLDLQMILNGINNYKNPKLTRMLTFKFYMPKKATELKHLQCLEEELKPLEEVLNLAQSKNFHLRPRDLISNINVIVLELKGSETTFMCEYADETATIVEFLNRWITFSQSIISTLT
# Test description: ELISA, coated Proleukin, HEK293F supernatant 1:2
Readings of ELISA value (wash 3x every hour for 12 HRS) for the listed binders
Please reply with the bare figure in luminescence signal and do not write the unit itself.

Study these solved cases before continuing.
>  <Binder>
Antibody No: 30 (antibody, human IgG1, kappa, N297A, V domains shown, VH N58Y + T30S; VK M33L + A50S; HEK293F supernatant) VH: EVQLVQSGAEVKKPGESLKISCKGSGYAFSNYLIEWVRQMPGKGLEWMGVINPGSGGTYYNEKFKGQVTISADKSISTAYLQWSSLKASDTAMYYCARWRGEGYYAYFDVWGQGTTVTVSS VL: AIRLTQSPSSFSASTGDRVTITCKASQSVDYQGDSYLNWYQQKPGKAPKLLIYSASNLESGVPSRFSGSGSGTDFTLTISSLQSEDFATYYCQQSNEDPYTFGGGTKVEIKR

>  <Assay value>
2800

$$$$
>  <Binder>
Antibody No: 27 (antibody, human IgG1, kappa, N297A, V domains shown, VH N58Y + T30S; VK M33L; HEK293F supernatant) VH: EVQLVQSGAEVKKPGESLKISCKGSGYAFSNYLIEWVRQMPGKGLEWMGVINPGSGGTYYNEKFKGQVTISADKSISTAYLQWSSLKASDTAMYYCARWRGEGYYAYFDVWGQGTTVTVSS VL: AIRLTQSPSSFSASTGDRVTITCKASQSVDYQGDSYLNWYQQKPGKAPKLLIYAASNLESGVPSRFSGSGSGTDFTLTISSLQSEDFATYYCQQSNEDPYTFGGGTKVEIKR

>  <Assay value>
2770

$$$$

Using known records, supply ELISA value (wash 3x every hour for 12 HRS) for Antibody No: 22 (antibody, human IgG1, kappa, N297A, V domains shown, VK M33L; HEK293F supernatant) VH: EVQLVQSGAEVKKPGESLKISCKGSGYAFSNYLIEWVRQMPGKGLEWMGVINPGSGGTNYNEKFKGQVTISADKSISTAYLQWSSLKASDTAMYYCARWRGEGYYAYYDVWGQGTTVTVSS VL: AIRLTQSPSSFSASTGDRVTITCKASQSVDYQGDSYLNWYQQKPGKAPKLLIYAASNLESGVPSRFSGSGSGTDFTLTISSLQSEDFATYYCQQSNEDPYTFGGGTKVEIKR
1200

Origin of the recorded values: patent US20210246200A1
